Collected fluorescence (KMESF) values appear next to each entry.
- experiment.description: green autofluorescence of compounds with avidin beads – biophysical, 488/530 nm, flow cytometry, artefact control, profiling panel (AID 1775)
- conditions.used: compound fluorescence 488/530 nm, at 10 µM, stronger effect = higher value
Hit rate of the full screen: of about 220,000 compounds, about 820 (0.37%) were called active. The full list was thinned out, with actives kept by preference.
// response body must contain only the number

Completed entries (count: 6):
Challenge: Looking for the measured fluorescence (KMESF) of COc1ccc(/C(=N\O)c2nccc3cc(OC)c(OC)cc23)cc1OC , can you help?
Response given: 7

Challenge: Looking for the measured fluorescence (KMESF) of CC(=O)Nc1ccc(NC(=O)COc2ccccc2C(=O)Nc2cccc(Cl)c2Cl)cc1 , can you help?
Response given: 14

Challenge: Looking for the measured fluorescence (KMESF) of O=C(Nc1ccccc1Cl)c1ccccc1S(=O)(=O)c1ccccc1[N+](=O)[O-] , can you help?
Response given: 11

Challenge: Looking for the measured fluorescence (KMESF) of CCCCCCCCCCCCC(NC(C)=O)(C(=O)OCC)C(=O)OCC , can you help?
Response given: 6

Challenge: Looking for the measured fluorescence (KMESF) of Cn1c(CCC(=O)OCC(=O)NCc2ccccc2Cl)nc(=O)c2ccccc21 , can you help?
Response given: 21

Challenge: Looking for the measured fluorescence (KMESF) of CN(C)S(=O)(=O)Oc1ccccc1C(=O)Nc1ccccc1Cl , can you help?
Response given: 81

***
Challenge: Looking for the measured fluorescence (KMESF) of Cc1ccc2nc(-c3cccnc3)c(NC3CCCC3)n2c1 , can you help?
Response given: 9

Challenge: Looking for the measured fluorescence (KMESF) of O=C(COC(=O)Cn1cnc2ccccc2c1=O)NCc1ccccc1Cl , can you help?
Response given: 58

Challenge: Looking for the measured fluorescence (KMESF) of O=C(NCc1csc(-c2cccs2)n1)C1CC1 , can you help?
Response given: 2

Challenge: Looking for the measured fluorescence (KMESF) of COC/C=C/C1=CC2=CC(=O)C(C)(OC(=O)CCC(=O)OC)C(=O)C2=CO1 (stereo unspecified) , can you help?
Response given: 10

Challenge: Looking for the measured fluorescence (KMESF) of COc1ccc2c(c1)cc1n2CCN=C1NN , can you help?
Response given: 7

---

- experiment.description: green autofluorescence of compounds with avidin beads – biophysical, 488/530 nm, flow cytometry, artefact control, profiling panel (AID 1775)
- conditions.used: compound fluorescence 488/530 nm, at 10 µM
Hit rate of the full screen: of about 220,000 compounds, about 820 (0.37%) were called active. Rule as the data show it: active = fluorescence above about 47; inactive = the rest. The entries come from a sample that favours actives as a whole.
Would you mind answering with one of these outcomes? active, inactive

A selection of reference data follows.
Challenge: Name the outcome recorded for O=C(Cc1cccs1)Nc1cccc(-c2nc3ccccc3[nH]2)c1 in the assay.
Response given: inactive

Challenge: Name the outcome recorded for O=C(/C=C/c1ccco1)Nc1cccc(-c2nc3ccccc3[nH]2)c1 in the assay.
Response given: inactive

Challenge: Name the outcome recorded for O=C(Nc1cccc(-c2nc3ccccc3[nH]2)c1)c1ccc(C(=O)Nc2cccc(-c3nc4ccccc4[nH]3)c2)cc1 in the assay.
Response given: active

Challenge: Name the outcome recorded for Cc1cc(Cl)ccc1NC(=S)N1CCC(C(N)=O)(N2CCCCC2)CC1 in the assay.
Response given: inactive

Attention now turns to another entry.
Challenge: Name the outcome recorded for COC(=O)c1ccc(S(=O)(=O)N(CCO)Cc2ccccc2)n1C in the assay.
Response given: inactive
